Source: paper PMC7037651

SUBJECT_OF_TEST: T1, soluble EGFR (sEGFR) (Homo sapiens (assumed; EGFR on human …, UniProt P00533)
T1 construct: soluble epidermal growth factor receptor (sEGFR); also called epidermal growth factor receptor; immobilized EGFR; source: prepared as described previously [28]
EXPERIMENT_NOTES: SPR; Biacore 2000; sEGFR immobilised on a CM5 chip (amount not given for Tables 2 and 5); running buffer PBS with 0.005% Tween20; scFv monomer or dimer injected for 120 s at 10 to 250 nM; global fit, 1:1 Langmuir model
CONDITION_SUMMARY: both partners purified
ATTRIBUTE_MEASURED: koff (s⁻¹)
Expressed in s⁻¹, but write only the number.

Recorded koff, per entry:
[[record]]
binder = "0K h528 scFv (scFv, V domains shown, linker (GGGGS)3; it looks like Kabat numbering; also called h528 scFv without lysine in the CDR and FR) VH: QVQLVQSGAEVAEPGASVQVSCAASGYTFTSYWMHWVRQAPGQGLEWMGNIYPGSGGTNYAEEFQNRVTMTRDTSISTAYMELSRLRSDDTAVYYCARSGGPYFFDYWGQGTLVTVSS VL: DIVMTQSPLSLPVTPGEPASISCRSSQNIVHNNGITYLEWYLQRPGQSPQLLIYQVSDRFSGVPDRFSGSGSGTDFTLTISRVEAEDVGVYYCFQGSHIPPTFGQGTEVEIE"
attribute_measured = "koff"
observed = 0.0082

[[record]]
binder = "HK19-0K h528 scFv (scFv, V domains shown, lysine kept at H19; linker (GGGGS)3; 0K scFv with the 19th residue of VH returned to lysine; also called HK19-0K scFv; KH19-0K scFv) VH: QVQLVQSGAEVAEPGASVKVSCAASGYTFTSYWMHWVRQAPGQGLEWMGNIYPGSGGTNYAEEFQNRVTMTRDTSISTAYMELSRLRSDDTAVYYCARSGGPYFFDYWGQGTLVTVSS VL: DIVMTQSPLSLPVTPGEPASISCRSSQNIVHNNGITYLEWYLQRPGQSPQLLIYQVSDRFSGVPDRFSGSGSGTDFTLTISRVEAEDVGVYYCFQGSHIPPTFGQGTEVEIE"
attribute_measured = "koff"
observed = 0.0079


// next entry
Query: Provide only the value of recorded koff for 0KCDR h528 scFv (scFv, V domains shown, linker (GGGGS)3; it looks like Kabat numbering; also called 0KCDR scFv) VH: QVQLVQSGAEVKKPGASVKVSCKASGYTFTSYWMHWVRQAPGQGLEWMGNIYPGSGGTNYAEEFQNRVTMTRDTSISTAYMELSRLRSDDTAVYYCARSGGPYFFDYWGQGTLVTVSS VL: DIVMTQSPLSLPVTPGEPASISCRSSQNIVHNNGITYLEWYLQKPGQSPQLLIYQVSDRFSGVPDRFSGSGSGTDFTLKISRVEAEDVGVYYCFQGSHIPPTFGQGTKVEIK
Result: 0.0054
